Data provenance: patent US10065990B2

system: PANC-1 (Pac-1, human pancreatic cancer cells); test: MTT cancer cell growth inhibition; format: cell-based; conditions: Homo sapiens, PANC-1, 72 h, MTT, 72 hours incubation; read-out: GI50 PAN
QUANTITY: GI50 (nM)

Worked examples follow.
{"columns": ["CHEMICAL STRUCTURE", "ASSAYED SYSTEM", "SCALE UNIT", "GI50"],
 "data": [
  ["C/C=C1\\NC(=O)c2cc(F)cc(n2)CCNC(=O)C[C@@H](/C=C/CCSC(C)=O)OC(=O)[C@H](C(C)C)NC1=O", "PANC-1 (Pac-1, human pancreatic cancer cells)", "nM", 90],
  ["C/C=C1\\NC(=O)c2nc(ccc2F)CNC(=O)C[C@@H](/C=C/CCSC(=O)CCCCCCC)OC(=O)[C@H](C)NC1=O", "PANC-1 (Pac-1, human pancreatic cancer cells)", "nM", 50],
  ["C/C=C1\\NC(=O)c2cc(F)cc(n2)CNC(=O)C[C@@H](/C=C/CCS)OC(=O)[C@H](CCCCNC(=O)OCC2c3ccccc3-c3ccccc32)NC1=O", "PANC-1 (Pac-1, human pancreatic cancer cells)", "nM", 70],
  ["C/C=C1\\NC(=O)c2ccc(F)c(n2)CNC(=O)C[C@@H](/C=C/CCSC(C)=O)OC(=O)[C@H](CCCCN)NC1=O", "PANC-1 (Pac-1, human pancreatic cancer cells)", "nM", 40],
  ["C/C=C1\\NC(=O)c2nc(ccc2F)CNC(=O)C[C@@H](/C=C/CCS)OC(=O)[C@H](C(C)C)NC1=O", "PANC-1 (Pac-1, human pancreatic cancer cells)", "nM", 30]
]}

A. C/C=C1\NC(=O)c2ccc(F)c(n2)CNC(=O)C[C@@H](/C=C/CCS)OC(=O)[C@H](C)NC1=O
B. C/C=C1\NC(=O)c2nc(ccc2F)CNC(=O)C[C@@H](/C=C/CCS)OC(=O)[C@H](Cc2cccc3ccccc23)NC1=O
C. C/C=C1\NC(=O)c2cccc(n2)CNC(=O)C[C@@H](/C=C/CCS)OC(=O)[C@H](CCCCNC(=O)OCC2c3ccccc3-c3ccccc32)NC1=O
Rank descending by GI50. Your answer should be the labels, listed in the requested order. B, A, C

----------
test system: MCF-7 (human breast cancer cells); assay: MTT cancer cell growth inhibition; type: cell-based; conditions: Homo sapiens, MCF7, 72 h, 72 hours incubation, read-out: GI50 MCF
QUANTITY: GI50 (nM)

a. C/C=C1\NC(=O)c2cc(F)cc(n2)CNC(=O)C[C@@H](/C=C/CCS)OC(=O)[C@H](CCCCN)NC1=O
b. C/C=C1\NC(=O)c2nc(ccc2F)CNC(=O)C[C@@H](/C=C/CCSC(=O)CCCCCC)OC(=O)[C@H](C(C)C)NC1=O
Hi there! Just curious which has the higher GI50 between a and b . Kindly give the label for the entry you pick. b

----------
target: HDAC11 (Homo sapiens, UniProt Q96DB2); assay: HDAC biochemical activity measurement (fluorescent substrate deacetylation);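 note: HDAC11 enzyme acting on an acetyl-lysine fluorogenic substrate, then a developer frees the fluorophore, read at excitation 360 nm and emission 460 nm, IC50 over a compound dilution series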; conditions: read-out: IC50 HDAC11; HDAC11; 37° C. 30 minutes
Sequence (Q96DB2 whole entry, species assumed): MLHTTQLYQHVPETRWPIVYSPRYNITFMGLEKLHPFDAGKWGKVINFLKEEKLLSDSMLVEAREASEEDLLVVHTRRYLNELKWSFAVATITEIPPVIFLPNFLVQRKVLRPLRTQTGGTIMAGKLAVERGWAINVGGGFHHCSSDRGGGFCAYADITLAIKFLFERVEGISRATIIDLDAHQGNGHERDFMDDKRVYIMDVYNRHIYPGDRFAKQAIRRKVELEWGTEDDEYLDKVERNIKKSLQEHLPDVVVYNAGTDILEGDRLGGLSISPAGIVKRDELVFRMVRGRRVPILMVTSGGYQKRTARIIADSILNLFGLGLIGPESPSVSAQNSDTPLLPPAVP
pIC50: −log10 of the molar value.
QUANTITY: pIC50

Worked examples follow.
{"columns": ["CHEMICAL STRUCTURE", "ASSAYED SYSTEM", "pIC50"],
 "data": [
  ["C/C=C1\\NC(=O)c2nc(ccc2F)CNC(=O)C[C@@H](/C=C/CCSC(=O)CCCCCCC)OC(=O)[C@H](C(C)C)NC1=O", "HDAC11 (Homo sapiens, UniProt Q96DB2)", 7.08],
  ["C/C=C1\\NC(=O)c2cccc(n2)CNC(=O)C[C@@H](/C=C/CCSC(=O)CCCCCC)OC(=O)[C@H](C(C)C)NC1=O", "HDAC11 (Homo sapiens, UniProt Q96DB2)", 6.99],
  ["C/C=C1\\NC(=O)c2cccc(n2)CNC(=O)C[C@@H](/C=C/CCSC(=O)CCC)OC(=O)[C@H](C(C)C)NC1=O", "HDAC11 (Homo sapiens, UniProt Q96DB2)", 6.95],
  ["C/C=C1\\NC(=O)c2cccc(n2)CNC(=O)C[C@@H](/C=C/CCSC(=O)CCCCCCC)OC(=O)[C@H](C(C)C)NC1=O", "HDAC11 (Homo sapiens, UniProt Q96DB2)", 6.42],
  ["C/C=C1\\NC(=O)c2cccc(n2)CNC(=O)C[C@@H](/C=C/CCSC(C)=O)OC(=O)[C@H](C)NC1=O", "HDAC11 (Homo sapiens, UniProt Q96DB2)", 7.04]
]}

P. C/C=C1\NC(=O)c2cc(F)cc(n2)CNC(=O)C[C@@H](/C=C/CCSC(C)=O)OC(=O)[C@H](CCCCNC(=O)OCC2c3ccccc3-c3ccccc32)NC1=O
Q. C/C=C1\NC(=O)c2cccc(n2)CNC(=O)C[C@@H](/C=C/CCSC(C)=O)OC(=O)[C@H](C(C)C)NC1=O
Lower value for measured pIC50? Options: P , Q Kindly give the label for the entry you pick. P
(P: 7.03, Q: 7.96)

P. C/C=C1\NC(=O)c2cc(F)cc(n2)CNC(=O)C[C@@H](/C=C/CCSC(C)=O)OC(=O)[C@H](CC)NC1=O
Q. C=C1NC(=O)c2cccc(n2)CNC(=O)C[C@@H](/C=C/CCSC(=O)CCCCCCC)OC(=O)[C@H](C(C)C)NC1=O
R. CCCCCCCC(=O)SCC/C=C/[C@@H]1CC(=O)NCc2cccc(n2)C(=O)NCC(=O)N[C@@H](C(C)C)C(=O)O1
Hey, quick one: sort these by pIC50, low to high? Your answer should be the labels, listed in the requested order. R, P, Q

A. C=C1NC(=O)c2cccc(n2)CNC(=O)C[C@@H](/C=C/CCSC(C)=O)OC(=O)[C@H](C(C)C)NC1=O
B. C/C=C1\NC(=O)c2cccc(n2)CNC(=O)C[C@@H](/C=C/CCSC(=O)CCCCCCC)OC(=O)[C@H](c2ccc(O)cc2)NC1=O
C. C/C=C1\NC(=O)c2cccc(n2)CNC(=O)C[C@@H](/C=C/CCSC(=O)CCCCCCC)OC(=O)[C@H](Cc2cccc3ccccc23)NC1=O
Rank descending by pIC50. Your answer should be the labels, listed in the requested order. C, B, A

1. C/C=C1\NC(=O)c2cccc(n2)CNC(=O)C[C@@H](/C=C/CCSC(=O)CCCCCCC)OC(=O)[C@H](Cc2ccccc2)NC1=O
2. C/C=C1\NC(=O)c2cccc(n2)CNC(=O)C[C@@H](/C=C/CCSC(=O)CCCC)OC(=O)[C@H](C(C)C)NC1=O
Lower value for measured pIC50? Options: 1 , 2 Kindly give the label for the entry you pick. 2
(2: 6.70, 1: 6.99)

I. C/C=C1\NC(=O)c2cccc(n2)CNC(=O)C[C@@H](/C=C/CCSC(=O)CCCCCCC)OC(=O)[C@H](C(C)(C)C)NC1=O
II. C/C=C1\NC(=O)c2cc(SC)cc(n2)CNC(=O)C[C@@H](/C=C/CCSC(C)=O)OC(=O)[C@H](C(C)C)NC1=O
Lower value for measured pIC50? Options: I , II Kindly give the label for the entry you pick. II
(II: 6.55, I: 7.11)

----------
system: DU145 (human prostate cancer cells); experiment: MTT cancer cell growth inhibition; format: cell-based; settings: Homo sapiens, DU-145, 72 h, DU145 cells, MTT, 72 hours incubation; read-out: GI50 Du1
QUANTITY: GI50 (nM)

{"columns": ["CHEMICAL STRUCTURE", "RESULT VALUE"],
 "data": [
  ["C/C=C1\\NC(=O)c2nc(ccc2SC)CNC(=O)C[C@@H](/C=C/CCSC(C)=O)OC(=O)[C@H](Cc2ccccc2)NC1=O", 100]
]}

I. C/C=C1\NC(=O)c2cccc(n2)CNC(=O)C[C@@H](/C=C/CCSC(=O)CCCCCCC)OC(=O)[C@H](CSCC)NC1=O
II. C/C=C1\NC(=O)c2ccc(SC)c(n2)CNC(=O)C[C@@H](/C=C/CCSC(C)=O)OC(=O)[C@H](C(C)C)NC1=O
Hi there! Just curious which has the higher GI50 between I and II . Kindly give the label for the entry you pick. I
(I: 90 nM, II: 40 nM)

----------
test system: A549 (human lung cancer cells); experiment: MTT cancer cell growth inhibition; type: cell-based; settings: Homo sapiens, A549, 72 h, MTT, 72 hours incubation; read-out: GI50 A54
QUANTITY: GI50 (nM)

Worked examples follow.
{"columns": ["MOLECULE", "RESULT VALUE"],
 "data": [
  ["C/C=C1\\NC(=O)c2nc(ccc2F)CNC(=O)C[C@@H](/C=C/CCSC(=O)CCCCCCC)OC(=O)[C@H](C)NC1=O [Example 60]", 40],
  ["C/C=C1\\NC(=O)c2cccc(n2)CNC(=O)C[C@@H](/C=C/CCS)OC(=O)[C@H](CC)NC1=O [Example 28]", 420],
  ["C/C=C1\\NC(=O)c2nc(F)cc(n2)CNC(=O)C[C@@H](/C=C/CCSC(C)=O)OC(=O)[C@H](C(C)C)NC1=O [Compound 96]", 40],
  ["C/C=C1\\NC(=O)c2ccc(F)c(n2)CNC(=O)C[C@@H](/C=C/CCS)OC(=O)[C@H](Cc2cccc3ccccc23)NC1=O [Compound 126]", 30],
  ["C/C=C1\\NC(=O)c2ccc(F)c(n2)CNC(=O)C[C@@H](/C=C/CCSC(=O)CCCCCCC)OC(=O)[C@H](C)NC1=O [Example 62]", 40]
]}

I. C=C1NC(=O)c2cccc(n2)CNC(=O)C[C@@H](/C=C/CCS)OC(=O)[C@H](C(C)C)NC1=O [Compound 131]
II. C/C=C1\NC(=O)c2cc(F)cc(n2)CNC(=O)C[C@@H](/C=C/CCSC(C)=O)OC(=O)[C@H](CCCCN)NC1=O [Example 73]
Hi there! Just curious which has the higher GI50 between I and II . Kindly give the label for the entry you pick. I

A. C/C=C1\NC(=O)c2ccc(F)c(n2)CNC(=O)C[C@@H](/C=C/CCS)OC(=O)[C@H](Cc2ccc(O)cc2)NC1=O [Compound 130]
B. C/C=C1\NC(=O)c2ccc(F)c(n2)CCNC(=O)C[C@@H](/C=C/CCSC(C)=O)OC(=O)[C@H](C(C)C)NC1=O [Compound 105]
Lower value for measured GI50? Options: A , B Kindly give the label for the entry you pick. B
(B: 40 nM, A: 70 nM)
